SUBJECT OF TEST: ScLsb4
ASSAY EXPLANATION: SPOT peptide array binding signal intensity (averaged, normalized) (arbitrary units (background-subtracted, floor 0; scale differs between SH3 domains)); higher = stronger binding of the SH3 domain to the peptide
MEASUREMENT TYPE: SPOT peptide array binding signal intensity
Lab note: jot the number down without any unit.

# annotated cases, reported SPOT peptide array binding signal intensity shown
BINDER	OBSERVED MEASUREMENT
NFFRKKLGIPRKLKR	3
KNRKNLPTIPIRLSG	80
YLTRPLPSTPNEDSR	706

The binder listed as `LLLLFVPDSPYDPAI` has a reported SPOT peptide array binding signal intensity of 1

The binder listed as `GRLRPKRIAPWHLIQ` has a reported SPOT peptide array binding signal intensity of 2

The binder listed as `AGKRRLPLVRFKASD` has a reported SPOT peptide array binding signal intensity of 25.5

The binder listed as `LLIRWLILMPLVGSR` has a reported SPOT peptide array binding signal intensity of 150

The binder listed as `ANNQGPPNLPARDKS` has a reported SPOT peptide array binding signal intensity of 4380

The binder listed as `QRKSLRRPTLSKPAV` has a reported SPOT peptide array binding signal intensity of 10.5

The binder listed as `FPPKRKPLLRPQRSD` has a reported SPOT peptide array binding signal intensity of 71

The binder listed as `RSRRSSFAYPQQVAI` has a reported SPOT peptide array binding signal intensity of 24.5

The binder listed as `NENKKLPPAPTVFGL` has a reported SPOT peptide array binding signal intensity of 6
